Organism: Rattus norvegicus
Test: Open TG-GATES - Regimen: Daily Repeat
Type: toxicity, organism-based, Sprague-Dawley
Set-up: regimen Daily Repeat, gender Male, age 6 weeks
Settings: in vivo, po, 0 mg/kg, […], tissue Plasma, route gavage, dose level Control, time 28 day
The entries below come with measured ALT values attached.

- molecule: "NC(=O)N1c2ccccc2C=Cc2ccccc21 [CARBAMAZEPINE]"
  uom: "IU/L"
  ALT: 35.4
- molecule: "COc1ccc(Cc2nccc3cc(OC)c(OC)cc23)cc1OC [PAPAVERINE]"
  uom: "IU/L"
  ALT: 44.4
- molecule: "CCc1cc(C(N)=S)ccn1 [ETHIONAMIDE]"
  uom: "IU/L"
  ALT: 31.6
- molecule: "CCCC(CCC)C(=O)O [VALPROIC ACID]"
  uom: "IU/L"
  ALT: 34.8
- molecule: "CC(=O)Oc1ccccc1C(=O)O [ASPIRIN]"
  uom: "IU/L"
  ALT: 33.2
- molecule: "O=C(O)c1cn(C2CC2)c2cc(N3CCNCC3)c(F)cc2c1=O [CIPROFLOXACIN]"
  uom: "IU/L"
  ALT: 28.8
- molecule: "CSc1ccc2c(c1)N(CCC1CCCCN1C)c1ccccc1S2 (centres undefined) [THIORIDAZINE]"
  uom: "IU/L"
  ALT: 34.6
- molecule: "Clc1ccccc1CN1CCc2sccc2C1 [TICLOPIDINE]"
  uom: "IU/L"
  ALT: 29.6
- molecule: "COc1ccc2c(c1)c(CC(=O)O)c(C)n2C(=O)c1ccc(Cl)cc1 [INDOMETHACIN]"
  uom: "IU/L"
  ALT: 27.6

These measurements were taken from ChEMBL document CHEMBL3885861.
